The reported measurements were obtained from patent US5962487A.

# log10(kinact/KI) values compiled below
- STUDY_TARGET: Rhinovirus 3C protease (RVP) serotype-14 (Human rhinovirus 14)
- Construct: Recombinant Rhinovirus 3C proteases from serotypes 14, 16, 2 or 89 were prepared; made in house
- Sequence (P03303 1538-1719): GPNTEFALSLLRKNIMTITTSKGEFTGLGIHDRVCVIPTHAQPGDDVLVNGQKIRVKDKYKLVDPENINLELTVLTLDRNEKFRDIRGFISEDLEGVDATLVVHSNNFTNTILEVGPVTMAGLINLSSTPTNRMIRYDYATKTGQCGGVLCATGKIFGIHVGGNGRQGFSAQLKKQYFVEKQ
- METHOD: Inhibition of Rhinovirus Protease, serotype 14 (FRET assay)
- Type: biochemical
- RUN_CONDITIONS: read-out: kobs/I
On a log10 scale: recorded kinact/KI, unit M⁻¹ s⁻¹.

// below: answered compounds
COMPOUND: CCOC(=O)/C=C/[C@H](CCC(N)=O)NC(=O)C1CN(Cc2ccccc2)CCN1C(=O)[C@H](CC(C)C)NC(=O)OCc1ccccc1 (mixture of isomers)
REPORTED_VALUE: 2.06

COMPOUND: CCOC(=O)/C=C/[C@H](CCC(N)=O)NC(=O)[C@@H]1[C@@H](c2ccccc2)CCN1C(=O)[C@H](CC(C)C)NC(=O)OCc1ccccc1
REPORTED_VALUE: 2.63

COMPOUND: CCOC(=O)/C(C)=C/[C@H](CCC(N)=O)NC(=O)[C@H](Cc1ccccc1)N(C)C(=O)[C@H](CC(C)C)NC(=O)SCC(C)C
REPORTED_VALUE: 3.36

COMPOUND: CC(C)C[C@H](NC(=O)OCc1ccccc1)C(=O)N1CCCC[C@H]1C(=O)N[C@H](/C=C/C(=O)N1CCCCO1)CCC(N)=O
REPORTED_VALUE: 2.94

COMPOUND: CCOC(=O)/C=C/[C@H](CCC(N)=O)NC(=O)[C@H](Cc1ccccc1)N(C)C(=O)[C@H](CC(C)C)NC(=O)SC1CCCCC1
REPORTED_VALUE: 4.18

Read the next record carefully.
INPUT: Report log10(kinact/KI) for CCOC(=O)/C(C)=C/[C@H](CCC(N)=O)NC(=O)[C@H](Cc1ccc(C)cc1)N(C)C(=O)[C@@H](NC(=O)SC1CCCC1)C(C)(C)C please.
OUTPUT: 3.28
